Catalogue of melting point values

> print(dat)
                               input.smiles  value.observed
1  CN(C[C@H](C(=O)NO)[C@@H](CCCc1ccc(-c2ccccc2)cc1)C(=O)N[C@H](CO)Cc1ccccc1)S(C)(=O)=O   201 to 207 °C
2  COc1ccc(S(=O)(=O)N(C)C[C@H](C(=O)NO)[C@@H](CC(C)C)C(=O)N[C@H](C(=O)N(C)C)C(C)(C)C)cc1   217 to 222 °C
3  CC(C)C[C@@H](C(=O)N[C@H](CO)C(C)(C)C)[C@H](CN(C)S(C)(=O)=O)C(=O)NO   167 to 169 °C
4  COc1ccc(S(=O)(=O)N(C)C[C@H](C(=O)NO)[C@@H](CC2CCCC2)C(=O)N[C@H](CO)C(C)(C)C)cc1   181 to 184 °C
5  COc1ccc(S(=O)(=O)N(C)C[C@H](C(=O)NO)[C@@H](CCCc2ccc(-c3ccccc3)cc2)C(=O)N[C@H](CO)C(C)(C)C)cc1   226 to 228 °C

Per the records, this compound ( CC(C)C[C@@H](C(=O)N[C@H](C(=O)N(C)C)C(C)(C)C)[C@H](CN(C)S(C)(=O)=O)C(=O)NO ) has melting point equal to 216 to 218 °C

Per the records, this compound ( CC(C)C[C@@H](C(=O)N[C@H](CO)Cc1ccc(O)cc1)[C@H](CN(C)S(C)(=O)=O)C(=O)NO ) has melting point equal to 125 to 128 °C

Per the records, this compound ( CC(C)C[C@@H](C(=O)N[C@H](CO)Cc1c[nH]cn1)[C@H](CN(C)S(C)(=O)=O)C(=O)NO ) has melting point equal to 219 to 221 °C

Per the records, this compound ( COc1ccc(S(=O)(=O)N(C)C[C@H](C(=O)NO)[C@@H](CCCc2ccc(-c3ccccc3)cc2)C(=O)N[C@H](CO)Cc2ccccc2)cc1 ) has melting point equal to 245 to 247 °C

Per the records, this compound ( COc1ccc(S(=O)(=O)N(C)C[C@H](C(=O)NO)[C@@H](CC(C)C)C(=O)N[C@H](CO)Cc2c[nH]cn2)cc1 ) has melting point equal to 208 to 209 °C

Per the records, this compound ( COCCOCCNC(=O)[C@@H](NC(=O)[C@H](CC(C)C)[C@H](CN(C)S(C)(=O)=O)C(=O)NO)C(C)(C)C ) has melting point equal to 192 to 193 °C

Per the records, this compound ( COc1ccc(S(=O)(=O)N(C)C[C@H](C(=O)NO)[C@@H](CC(C)C)C(=O)N[C@H](CO)Cc2ccccc2)cc1 ) has melting point equal to 196 to 203 °C

Per the records, this compound ( CC(C)C[C@@H](C(=O)N[C@H](CO)Cc1ccccc1)[C@H](CN(C)S(C)(=O)=O)C(=O)NO ) has melting point equal to 200 to 202 °C
